The origin of these recorded values is ChEMBL document CHEMBL1687706.

- Measurement Notes: Cytotoxicity against african green monkey Vero cells
- Assay type: cell-based
- Condition Set: chlorocebus sabaeus, read-out: TC50 (the source's name)
Quantity Measured: CC50 (µM)
Answer with a number only, understood to be in µM.

Qu. Which CC50 is reported for this molecule? "C/C=C/C[C@@H](C)[C@@H](O)[C@H]1C(=O)N[C@@H](CC)C(=O)N(C)[C@H](C)C(=O)N(CC)[C@@H](C(C)C)C(=O)N[C@@H](C(C)C)C(=O)N(C)[C@@H](CC(C)C)C(=O)N[C@@H](C)C(=O)N[C@H](C)C(=O)N(C)[C@@H](CC(C)C)C(=O)N(C)[C@@H](CC(C)C)C(=O)N(C)[C@@H](C(C)C)C(=O)N1C"
Ans. 16.6

====

- Measurement Notes: Cytotoxicity against CRFK
- Design: species or system Felis catus
- Condition Set: cat, CRFK cells; read-out: TC50 (the source's name)
Quantity Measured: CC50 (µM)
Answer with a number only, understood to be in µM.

Qu. Which CC50 is reported for this compound? C/C=C/C[C@@H](C)[C@@H](O)[C@H]1C(=O)N[C@@H](CC)C(=O)N(C)[C@H](C)C(=O)N(CC)[C@@H](C(C)C)C(=O)N[C@@H](C(C)C)C(=O)N(C)[C@@H](CC(C)C)C(=O)N[C@@H](C)C(=O)N[C@H](C)C(=O)N(C)[C@@H](CC(C)C)C(=O)N(C)[C@@H](CC(C)C)C(=O)N(C)[C@@H](C(C)C)C(=O)N1C [ALISPORIVIR]
Ans. 10.6
